Numbers sourced from patent US20260015350A1.

System: KRas-mediated phosphorylation of ERK in H460 cells
PROTOCOL NOTES: Inhibition of KRas-mediated phosphorylation of ERK (Cisbio HTRF pERK), H460 cells
Format: cell-based
CONDITION PARAMETERS: Homo sapiens, NCI-H460, HTRF pERK
MEASUREMENT KIND: IC50 (nM)

Examples with their reported IC50 follow.
COMPOUND	UNIT STRING	IC50
CCc1c(F)ccc2cc3[nH]ncc3c(-c3ncc4c(N5CCC[C@@](C)(O)C5)nc(OC[C@@]56CCCN5C[C@H](F)C6)nc4c3F)c12 [Example 776]	nM	29
CCc1c(F)ccc2cc(O)cc(-c3ncc4c(N5CCCCC(C#N)C5)nc(OC[C@@]56CCCN5C[C@H](F)C6)nc4c3F)c12 (stereo partly shown) [Example 547]	nM	51
C/C=C1/CN2CCCC2(COc2nc(N3C[C@@H]4C[C@H](C3)[C@H](O)C4)c3cnc(-c4cc(O)cc5ccc(F)c(CC)c45)c(F)c3n2)C1 (stereo partly shown) [Example 939]	nM	18

a. CCc1c(F)ccc2cc(O)cc(-c3ncc4c(N5C[C@@H]6C[C@H](C5)[C@H](O)C6)nc(OCC56CCCN5CC(=C(F)F)C6)nc4c3F)c12 (stereo partly shown) [Example 798]
b. CCc1c(F)ccc2cc(O)cc(-c3ncc4c(N5CC6CCC(COCCO)(C6)C5)nc(OC[C@@]56CCCN5C[C@H](F)C6)nc4c3F)c12 (stereo partly shown) [Example 840]
Req: Record comparison, field IC50: mark the lower of a and b . Answer format: the label of the selected item.
Resp: a

* * *

TGT: KRas^G12V (Homo sapiens, UniProt P01116, G12V)
Construct: Biotinylated KRas (corresponding to amino acids 1-169, produced at Accelegan Inc.); biotin (biotinylated); purchased Accelegan Inc
Sequence (P01116 1-169 isoform P01116-2 G12V): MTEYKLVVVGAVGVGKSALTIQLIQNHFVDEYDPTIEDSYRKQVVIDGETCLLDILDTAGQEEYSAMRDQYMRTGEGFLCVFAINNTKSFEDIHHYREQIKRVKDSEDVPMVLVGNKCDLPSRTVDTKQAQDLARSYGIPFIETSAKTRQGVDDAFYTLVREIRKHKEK
PROTOCOL NOTES: KRas binding assay (TR-FRET tracer displacement), KRas G12V
MEASUREMENT KIND: IC50

Examples with their reported IC50 follow.
COMPOUND	TGT	REPORTED VALUE
CCc1c(F)ccc2cc(O)cc(-c3ncc4c(N5CCCC6(CCS(=O)(=O)N6)C5)nc(OC[C@@]56CCCN5C[C@H](F)C6)nc4c3F)c12 (stereo partly shown) [Example 643]	KRas^G12V (Homo sapiens, UniProt P01116, G12V)	< 2 nM
CCc1c(F)ccc2cc3[nH]ncc3c(-c3ncc4c(N5C[C@@H]6C[C@H](C5)[C@H](O)C6)nc(OC[C@@]56CCCN5C[C@H](F)C6)nc4c3F)c12 [Example 825]	KRas^G12V (Homo sapiens, UniProt P01116, G12V)	< 2 nM
C=C1CN2CCCC2(COc2nc(N3CCCC(C)(O)C3)c3cnc(-c4cc(O)cc5ccc(F)c(CC)c45)c(F)c3n2)C1 (stereo in doubt) [Example 797]	KRas^G12V (Homo sapiens, UniProt P01116, G12V)	< 2 nM

Turning to the following compound.
Req: Enter recorded IC50 with KRas^G12V (Homo sapiens, UniProt P01116, G12V) for C/C=C1\CN2CCCC2(COc2nc(N3C[C@@H]4C[C@H](C3)[C@H](O)C4)c3cnc(-c4cc(O)cc5ccc(F)c(CC)c45)c(F)c3n2)C1 (stereo partly shown) [Example 938] here.
Resp: < 2 nM

* * *

TGT: KRas^G12D (Homo sapiens, UniProt P01116, G12D)
Construct: Biotinylated KRas (corresponding to amino acids 1-169, produced at Accelegan Inc.); biotin (biotinylated); purchased Accelegan Inc
Sequence (P01116 1-169 isoform P01116-2 G12D): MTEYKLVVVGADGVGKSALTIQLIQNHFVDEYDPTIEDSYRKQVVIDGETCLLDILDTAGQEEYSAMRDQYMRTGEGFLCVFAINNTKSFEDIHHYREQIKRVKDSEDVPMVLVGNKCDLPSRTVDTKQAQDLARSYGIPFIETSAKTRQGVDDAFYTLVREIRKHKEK
PROTOCOL NOTES: KRas binding assay (TR-FRET tracer displacement), KRas G12D
MEASUREMENT KIND: IC50 (nM)

Examples with their reported IC50 follow.
COMPOUND	TGT	IC50 / nM
CCc1c(F)ccc2cc(O)cc(-c3ncc4c(N5CCC[C@@](C)(O)C5)nc(OCC5(CN(C)C)CC56CC6)nc4c3F)c12 (stereo partly shown) [Example 783]	KRas^G12D (Homo sapiens, UniProt P01116, G12D)	2
CCc1c(F)ccc2cc(O)cc(-c3ncc4c(NCc5cc(C(=O)N(C)C)nn5CC#N)nc(OC[C@@]56CCCN5C[C@H](F)C6)nc4c3F)c12 [Example 657]	KRas^G12D (Homo sapiens, UniProt P01116, G12D)	4

I. CCc1c(F)ccc2cc(O)cc(-c3ncc4c(N5CCC[C@@](C)(O)C5)nc(OCC56CNCC5C6)nc4c3F)c12 (stereo partly shown) [Example 695]
II. CCc1c(F)ccc2cc(O)cc(-c3ncc4c(N5CC6CCC(COCCOC)(C6)C5)nc(OC[C@@]56CCCN5C[C@H](F)C6)nc4c3F)c12 (stereo partly shown) [Example 857]
III. CCc1c(F)ccc2cc(O)cc(-c3ncc4c(N5CCC[C@@](C)(O)C5)nc(OCC56CCCN5CC(=C(F)F)C6)nc4c3F)c12 (stereo partly shown) [Example 792]
IV. CCc1c(F)ccc2cc(O)cc(-c3ncc4c(N5CC6CCC(C5)C6CC(=O)N(C)C)nc(OC[C@@]56CCCN5C[C@H](F)C6)nc4c3F)c12 (stereo partly shown) [Example 860]
V. CCc1c(F)ccc2cc(O)cc(-c3ncc4c(N5CC6CCC(C5)C6C(=O)N(C)C)nc(OC[C@@]56CCCN5C[C@H](F)C6)nc4c3F)c12 (stereo partly shown) [Example 858]
Req: Let's sort these by IC50, smallest first. Go ahead? Reply: labels, ordered per the request.
Resp: III, I, V, II, IV

* * *

TGT: KRas^G12D (Homo sapiens, UniProt P01116, G12D)
Construct: Biotinylated KRas (corresponding to amino acids 1-169, produced at Accelegan Inc.); biotin (biotinylated); purchased Accelegan Inc
PROTOCOL NOTES: KRas binding assay (TR-FRET tracer displacement), KRas G12D
MEASUREMENT KIND: IC50 (nM)

Examples with their reported IC50 follow.
COMPOUND	MEASUREMENT KIND	UNIT STRING	REPORTED VALUE
CCc1c(F)ccc2cc(O)cc(-c3ncc4c(N5CCCC(N6C(=O)CCC6=O)C5)nc(OC[C@@]56CCCN5C[C@H](F)C6)nc4c3F)c12 (some centres unmarked)	IC50	nM	41
CCc1c(F)ccc2cc(O)cc(-c3ncc4c(N5CCCn6nc(S(N)(=O)=O)cc6C5)nc(OC[C@@]56CCCN5C[C@H](F)C6)nc4c3F)c12	IC50	nM	680
CCc1c(F)ccc2cc(O)cc(-c3ncc4c(N5CCC(Cc6cncn6C)C5)nc(OC[C@@]56CCCN5C[C@H](F)C6)nc4c3F)c12 (some centres unmarked)	IC50	nM	939
CCc1c(F)ccc2cc(O)cc(-c3ncc4c(NCc5cc(C(=O)N(C)C)n(CCC#N)n5)nc(OC[C@@]56CCCN5C[C@H](F)C6)nc4c3F)c12	IC50	nM	34
CCc1c(F)ccc2cc(O)cc(-c3ncc4c(N5CC6CCC(C(N)=O)(C6)C5)nc(OC[C@@]56CCCN5C[C@H](F)C6)nc4c3F)c12 (some centres unmarked)	IC50	nM	8

A. CCc1c(F)ccc2cc(O)cc(-c3ncc4c(N5CCCC6(C5)CN(S(C)(=O)=O)C6)nc(OC[C@@]56CCCN5C[C@H](F)C6)nc4c3F)c12
B. Cc1cc2[nH]ncc2c(-c2ncc3c(N4CC5CC(O)C(C5)C4)nc(OCC45CCCN4CCC5)nc3c2F)c1C (centres unmarked)
C. CCc1c(F)ccc2cc(O)cc(-c3ncc4c(NCC5CNC(=O)CO5)nc(OC[C@@]56CCCN5C[C@H](F)C6)nc4c3F)c12 (some centres unmarked)
Req: Let's sort these by IC50, smallest first. Go ahead? Reply: labels, ordered per the request.
Resp: C, A, B
(C: 10 nM, A: 19 nM, B: 1610 nM)

* * *

TGT: KRas^G12V (Homo sapiens, UniProt P01116, G12V)
Construct: Biotinylated KRas (corresponding to amino acids 1-169, produced at Accelegan Inc.); biotin (biotinylated); purchased Accelegan Inc
PROTOCOL NOTES: KRas binding assay (TR-FRET tracer displacement), KRas G12V
MEASUREMENT KIND: IC50 (nM)

Examples with their reported IC50 follow.
MOLECULE	TGT	UNIT STRING	IC50
Cc1cc2[nH]nnc2c(-c2ncc3c(N4CCC[C@@](C)(O)C4)nc(OCC45CCCN4CCC5)nc3c2F)c1C	KRas^G12V (Homo sapiens, UniProt P01116, G12V)	nM	11600
CCc1c(F)ccc2cc(O)cc(-c3ncc4c(NCc5cc(C(=O)N(C)C)nn5[C@H]5C[C@H](O)C5)nc(OC[C@@]56CCCN5C[C@H](F)C6)nc4c3F)c12	KRas^G12V (Homo sapiens, UniProt P01116, G12V)	nM	192

P. CCc1c(F)ccc2cc(O)cc(-c3ncc4c(N5CCOC[C@@](C)(COC)C5)nc(OC[C@@]56CCCN5C[C@H](F)C6)nc4c3F)c12
Q. CCc1c(F)ccc2cc(O)cc(-c3ncc4c(N5CC[C@@H]6C(=O)NC(=O)[C@@H]6CC5)nc(OC[C@@]56CCCN5C[C@H](F)C6)nc4c3F)c12
Req: Record comparison, field IC50: mark the lower of P and Q . Answer format: the label of the selected item.
Resp: P
(P: 243 nM, Q: 398 nM)

I. CCc1c(F)ccc2cc(O)cc(-c3ncc4c(N5C[C@@H]6C[C@H](C5)[C@H](O)C6)nc(OCC56CC(F)CN5CC(F)C6)nc4c3F)c12 (some centres unmarked)
II. CCc1c(F)ccc2cc(O)cc(-c3ncc4c(NCc5cc(C(=O)N(C)C)nn5C5CS(=O)(=O)C5)nc(OC[C@@]56CCCN5C[C@H](F)C6)nc4c3F)c12
Req: Record comparison, field IC50: mark the lower of I and II . Answer format: the label of the selected item.
Resp: II
(II: 2 nM, I: 4 nM)
